Test system: RPMI-8226 leukemia
procedure-text: NCI-60 one-dose screen, 48 h
run-parameters: 10 µM unless noted
About 83,000 compounds went through this panel and 20% of them were active in at least one assay; those are over-represented in the sample as a whole. Calls of active or inactive are those of the source. The calls were made as follows: active = growth percent below 10; inactive = the rest.
Outcome codes: t (active), f (inactive)

compound | experimental-system | assigned-category
COc1c(B(O)O)cccc1-c1nc2c(F)cc3n[nH]c(C)c3c2c2c1CCCC2 | RPMI-8226 leukemia | t
CC(C)(C)c1ccc(Cn2c(-c3nonc3N)nc3ccccc32)cc1 | RPMI-8226 leukemia | f
Cn1c(=O)c2c3c(oc2c2ccccc21)C(=O)c1ccccc1C3=O | RPMI-8226 leukemia | f
N#CC1=C(N)Oc2nc[nH]c(=O)c2C1c1cccs1 (stereo unspecified) | RPMI-8226 leukemia | f
SCc1ccc(CS)cc1 | RPMI-8226 leukemia | f
COC(=O)C(CCC(=O)CCl)N1C(=O)c2ccccc2C1=O (stereo unspecified) | RPMI-8226 leukemia | t
